// read-out log10 of Ki, gathered for UniProtKB P29275 from published studies
EXPERIMENTAL_SYSTEM: UniProtKB P29275
Sequence (P29275 whole entry): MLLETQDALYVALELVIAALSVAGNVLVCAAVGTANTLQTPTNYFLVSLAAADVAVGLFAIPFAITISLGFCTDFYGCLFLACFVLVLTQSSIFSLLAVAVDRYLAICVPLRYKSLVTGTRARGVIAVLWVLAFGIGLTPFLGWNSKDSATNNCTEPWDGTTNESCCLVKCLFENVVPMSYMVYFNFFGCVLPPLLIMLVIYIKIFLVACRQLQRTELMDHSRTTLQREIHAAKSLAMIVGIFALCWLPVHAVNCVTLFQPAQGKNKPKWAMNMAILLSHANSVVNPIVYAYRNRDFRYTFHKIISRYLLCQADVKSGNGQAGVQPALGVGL
Response schema: value (number) is log10 of Ki in units of µM.

Solved entries (count: 3):
Item "CCN(C(C)=O)c1ccc(OC)c2nc(NC(=O)c3cnn(C)c3)sc12" : provide log10 of Ki
-1.72

Item "CCCn1c(=O)c2[nH]c(-c3cnn(Cc4cccc(F)c4)c3)nc2n(CCC)c1=O" : provide log10 of Ki
-1.85

Item "CCOC(=O)COc1ccc(-c2cc3c([nH]2)c(=O)n(C)c(=O)n3C)c(OC)c1" : provide log10 of Ki
0.34

I would be grateful if you could provide log10 of Ki for each of the following entries.
1. CCCn1c(=O)c2[nH]c(-c3ccc(OC(C)C(=O)Nc4ccc(OC)cc4)cc3)cc2n(CCC)c1=O (centres undefined)
2. CCn1nnc([C@H]2O[C@@H](n3cnc4c(N)nc(N[C@H](CO)Cc5ccc([N+](=O)[O-])cc5)nc43)[C@H](O)[C@@H]2O)n1
3. c1coc(-c2nc3[nH]ncc3cc2-c2ccncn2)c1
4. OC[C@H]1O[C@@H](n2cnc3c(N[C@H]4CCC[C@@H]4O)ncnc32)[C@H](O)[C@@H]1O
5. O=C(Nc1ccc(-c2ccncc2)c(Cl)n1)C1CC1
6. Cn1c(=O)c2nc(-c3cnn(Cc4ccccc4)c3)[nH]c2n(C)c1=O

-2.29
0.56
-1.64
1.50
-0.42
0.36

I would be grateful if you could provide log10 of Ki for each of the following entries.
1. Cc1cccc(-c2cc(-c3ccco3)nc(N)c2C#N)c1
2. CCCn1c(=O)c2[nH]c(-c3ccc(OC(C)C(=O)O)cc3)cc2n(CCC)c1=O (centres undefined)

1: -0.21; 2: -1.36

* * *

// read-out Ki, gathered for Adenosine receptor A2b (Homo sapiens) from published studies
Exam item: assign 1 to entries whose Ki is below 30 nM and -1 to entries at or above 30 nM. Note that a value of exactly 30 nM receives -1.

Lab note: confirm whether the reported Ki for this molecule is below 30 nM, equality not counting. molecule: "CCCn1c(=O)c2[nH]c([C@]34CC[C@](CCC(=O)O)(CC3)CC4)nc2n(CCC)c1=O"
-1

Lab note: confirm whether the reported Ki for this molecule is below 30 nM, equality not counting. molecule: "CCCn1c(=O)c2[nH]c(-c3ccc(OCC(=O)Nc4ccccn4)cc3)cc2n(CCC)c1=O"
1

Lab note: confirm whether the reported Ki for this molecule is below 30 nM, equality not counting. molecule: "CCCn1c(=O)[nH]c2nc(-c3cnn(Cc4noc(-c5ccccc5)n4)c3)[nH]c2c1=O"
1

***
Lab note: confirm whether the reported Ki for this molecule is below 30 nM, equality not counting. molecule: "COCCn1c(=O)c2c(nc(Cc3ccccc3)n2C)n(Cc2ccco2)c1=O"
-1

Lab note: confirm whether the reported Ki for this molecule is below 30 nM, equality not counting. molecule: "CCCn1c(=O)c2[nH]c(-c3ccco3)c(O)c2n(CCC)c1=O"
1

Lab note: confirm whether the reported Ki for this molecule is below 30 nM, equality not counting. molecule: "CCCn1c(=O)c2[nH]c(-c3ccc(S(C)(=O)=O)cc3)c(O)c2n(C)c1=O"
-1

* * *

EXPERIMENTAL_SYSTEM: Adenosine receptor A2b (Homo sapiens)
Sequence (P29275 whole entry): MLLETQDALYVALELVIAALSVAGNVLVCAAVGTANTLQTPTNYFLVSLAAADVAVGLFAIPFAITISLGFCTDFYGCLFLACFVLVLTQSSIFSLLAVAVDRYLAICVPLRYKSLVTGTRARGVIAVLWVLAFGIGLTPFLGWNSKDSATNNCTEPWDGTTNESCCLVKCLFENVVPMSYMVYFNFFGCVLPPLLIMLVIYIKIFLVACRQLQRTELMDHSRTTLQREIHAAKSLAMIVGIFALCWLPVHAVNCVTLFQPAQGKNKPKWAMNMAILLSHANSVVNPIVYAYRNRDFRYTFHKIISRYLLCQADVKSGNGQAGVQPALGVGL
// read-out log10 of Ki, gathered for Adenosine receptor A2b (Homo sapiens) from published studies
Response schema: value (number) is log10 of Ki in units of µM.

I would be grateful if you could provide log10 of Ki for each of the following entries.
1. CCCn1c(=O)c2c(cc(-c3ccc(OC)cc3)n2O)n(CCC)c1=O
2. C=CCn1c(=O)c2c(nc(Cc3cccs3)n2C)n(Cc2ccco2)c1=O
3. CCC(=O)Nc1nc(-c2ccsc2)cc(-c2ccsc2)n1

[-0.32, -1.67, 0.51]

* * *

// read-out Ki, gathered for Adenosine receptor A2b (Homo sapiens, UniProt P29275) from published studies
One number for each entry, in nM.

Solved entries (count: 4):
Item "COc1ccc2c(C)nc(NC3=NCC(=O)N3)nc2c1" : provide Ki
112

Item "CCCn1c(=O)c2[nH]c(-c3cnn(Cc4cc(C(F)(F)F)cc(Cl)c4F)c3)nc2n(CCC)c1=O" : provide Ki
360

Item "Oc1ccc(-c2nc(N3CCCCC3)c3nc[nH]c3n2)cc1" : provide Ki
79.4

Item "CCCn1c(=O)c2[nH]c(-c3ccccc3)c(O)c2n(CCC)c1=O" : provide Ki
54

***
Item "CCCn1c(=O)c2[nH]c(-c3cnn(-c4ccccc4)c3)nc2n(CCC)c1=O" : provide Ki
310

* * *

// read-out pKi, gathered for Adenosine receptor A2b (Homo sapiens) from published studies
Give bare numbers, as −log10 of the molar value.

Solved entries (count: 10):
Item CCOC(=O)C1=C(C)NC(=S)NC1c1ccoc1 (racemic) : provide pKi
7.37

Item "CCn1c(=O)c2[nH]c(-c3ccc(OCC(=O)Nc4ccc(F)cc4)cc3)nc2n(CCCOC)c1=O" : provide pKi
8.52

Item CCOC(=O)C1=C(C)N/C(=N\C#N)NC1c1ccoc1 (racemic) : provide pKi
6.99

Item "CCCn1c(=O)c2[nH]c(-c3ccc(OCC(=O)NCc4ccc(Cl)cc4)cc3)cc2n(C)c1=O" : provide pKi
7.69

Item "CCN(C(C)=O)c1ccc(OC)c2nc(NC(=O)c3ccc(S(C)(=O)=O)cc3)sc12" : provide pKi
7.72

Item "Cn1c(=O)c2[nH]c(-c3cccc(C(=O)O)c3)nc2n(C)c1=O" : provide pKi
5.26

Item CCOC(=O)C1=C(C)Nc2nc3ccccc3n2C1c1nccs1 (racemic) : provide pKi
6.41

Item CCCn1c(=O)c2[nH]c(-c3ccc(OC(CC)C(=O)Nc4ccccc4)cc3)cc2n(CCC)c1=O (centres undefined) : provide pKi
8.01

Item "CCCn1c(=O)c2[nH]c(-c3ccc(OCC(=O)Nc4ccc(CC(=O)OCC)cc4)cc3)cc2n(C)c1=O" : provide pKi
6.88

Item "C=CCn1c(=O)[nH]c2nc[nH]c2c1=O" : provide pKi
6.34

I would be grateful if you could provide pKi for each of the following entries.
1. CCCn1c(=O)c2nc(-c3cnn(Cc4ccc(OC)c(C(F)(F)F)c4)c3)[nH]c2n(CCC)c1=O
2. CCCn1c(=O)c2[nH]c(-c3ccc(OCC(=O)NCc4ccccc4)cc3)c(Cl)c2n(CCC)c1=O
3. CCCn1c(=O)c2nc([C@]34CC[C@](/C=C/C(=O)O)(CC3)CC4)[nH]c2n(CCC)c1=O

[6.39, 7.08, 7.00]

I would be grateful if you could provide pKi for each of the following entries.
1. CCCn1c(=O)c2[nH]c(-c3cnn(Cc4cc(Cl)ccc4Cl)c3)nc2n(CCC)c1=O
2. O=C(Nc1ccc(-c2ccncc2)c(-c2cccc(F)c2)n1)C1CC1
3. CCCn1c(=O)[nH]c2nc(-c3ccc(OCC(=O)NCCO)cc3)[nH]c2c1=O
4. CCCn1c(=O)c2[nH]c(-c3ccc(OCC(=O)Nc4ccc(F)cc4)cc3)cc2n(C)c1=O
5. CCCn1c(=O)c2[nH]c(-c3ccc(C)cc3)cc2n(CCC)c1=O

1. 7.54
2. 8.70
3. 8.92
4. 8.25
5. 6.70

* * *

// read-out Ki, gathered for Adenosine receptor A2b (Homo sapiens, UniProt P29275) from published studies
EXPERIMENTAL_SYSTEM: Adenosine receptor A2b (Homo sapiens, UniProt P29275)
Sequence (P29275 whole entry): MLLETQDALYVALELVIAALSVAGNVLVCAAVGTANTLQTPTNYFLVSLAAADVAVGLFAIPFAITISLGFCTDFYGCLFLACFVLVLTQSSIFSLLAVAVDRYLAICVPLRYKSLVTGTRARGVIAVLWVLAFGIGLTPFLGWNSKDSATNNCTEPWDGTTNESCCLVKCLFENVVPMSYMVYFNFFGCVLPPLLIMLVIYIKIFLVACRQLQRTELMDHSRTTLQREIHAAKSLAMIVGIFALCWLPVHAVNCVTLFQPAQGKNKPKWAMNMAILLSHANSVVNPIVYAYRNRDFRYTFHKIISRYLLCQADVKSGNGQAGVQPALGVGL
Answers are plain numbers, in nM.

Give Ki; test system Adenosine receptor A2b (Homo sapiens, UniProt P29275); compound "c1coc(-c2nc3[nH]ccc3cc2-c2ccncn2)c1"
13

Give Ki; test system Adenosine receptor A2b (Homo sapiens, UniProt P29275); compound "CCCn1c(=O)c2[nH]c(-c3ccc(OCC(=O)Nc4ccc(F)cc4)cc3)c(Cl)c2n(CCC)c1=O"
27.5

Give Ki; test system Adenosine receptor A2b (Homo sapiens, UniProt P29275); compound "CCCn1c(=O)[nH]c2nc(-c3ccc(OCC(=O)NCCN)cc3)[nH]c2c1=O"
10

Give Ki; test system Adenosine receptor A2b (Homo sapiens, UniProt P29275); compound "CCSCCn1c(=O)c2[nH]c(Cc3ccco3)nc2n(CCCOC)c1=O"
2000

Pending compound:
Give Ki; test system Adenosine receptor A2b (Homo sapiens, UniProt P29275); compound "CCCn1c(=O)c2nc(-c3cnn(Cc4ccc(F)cc4F)c3)[nH]c2n(CCC)c1=O"
700
